System: 3D7
procedure-text: qHTS profiling for inhibitors of Plasmodium falciparum proliferation (AID 504749); also: nearly all actives have a fitted effect of over 60% in size
condition-summary: P. falciparum in erythrocytes, SYBR Green DNA, 72 h; series mostly up to 28.7 µM
Records with an inconclusive call do not appear. Active and inactive are the calls of the source. Calls follow the shape of the dose curve; as a rule, active = well fitted inhibition curve with a large enough effect; inconclusive = small, poorly fitted or top-dose-only effect; inactive = flat fitted curve, though single readings scatter.
Parameter call: string, one of active, inactive

Field: example entries. Status: answers known.
{"columns": ["compound", "target-of-assay", "category"],
 "data": [
  ["CC(C)(C)C(=O)C(Oc1ccc(Cl)cc1)n1ccnc1 (centres undefined)", "3D7", "active"],
  ["O=c1cc[nH]c(=S)[nH]1", "3D7", "inactive"],
  ["O=C1NC(=O)[C@@]2(CCOc3ccc(F)cc32)N1", "3D7", "inactive"],
  ["COc1cc2[nH]c(=O)[nH]c(=O)c2cc1OC", "3D7", "inactive"]
]}

(Q) // param item: Cc1cc(O)cc2c1O[C@](C)(CCC[C@H](C)CCC[C@H](C)CCCC(C)C)CC2 ; yields the recorded call
(A) inactive

(Q) // param item: O=S(=O)(O)NC1CCCCC1 ; yields the recorded call
(A) inactive

(Q) // param item: C[C@](N)(Cc1ccc(O)cc1)C(=O)O ; yields the recorded call
(A) inactive

(Q) // param item: CC1=C(CC(=O)O)c2cc(F)ccc2/C1=C\c1ccc(S(C)=O)cc1 (centres undefined) ; yields the recorded call
(A) inactive

(Q) // param item: O=C(O)c1ccccn1 ; yields the recorded call
(A) inactive

(Q) // param item: Cc1cc(C(C#N)c2ccc(Cl)cc2)c(Cl)cc1NC(=O)c1cc(I)cc(I)c1O (centres undefined) ; yields the recorded call
(A) inactive

(Q) // param item: O=c1[nH]c(=O)c2[nH]c(=O)[nH]c2[nH]1 ; yields the recorded call
(A) inactive

(Q) // param item: CCC(=O)c1ccc(O)cc1 ; yields the recorded call
(A) inactive

(Q) // param item: CC(C)(C)NCC(O)COc1ccc(NC(=O)NC2CCCCC2)cc1 (centres undefined) ; yields the recorded call
(A) inactive

(Q) // param item: C[C@]12C[C@H](O)[C@H]3[C@@H](CCC4=CC(=O)CC[C@@]43C)[C@@H]1CC[C@@H]2C(=O)CO ; yields the recorded call
(A) inactive

(Q) // param item: CNCCCC1c2ccccc2C=Cc2ccccc21 ; yields the recorded call
(A) inactive

###

Test system: DIV14
procedure-text: qHTS profiling for inhibitors of Plasmodium falciparum proliferation (AID 504749); also: nearly all actives have a fitted effect of over 60% in size; also: potency is read from the fitted curve at half-maximal effect
condition-summary: P. falciparum in erythrocytes, SYBR Green DNA, 72 h; series mostly up to 28.7 µM
Inconclusive results are not listed. The source made the active and inactive calls. Calls follow the shape of the dose curve; as a rule, active = well fitted inhibition curve with a large enough effect; inconclusive = small, poorly fitted or top-dose-only effect; inactive = flat fitted curve, though single readings scatter.
endpoint: Potency

{"columns": ["compound", "Potency"],
 "data": [
  ["C[C@]12C[C@H](O)[C@H]3[C@@H](CCC4=CC(=O)CC[C@@]43C)[C@@H]1CC[C@@H]2C(=O)CO", "inactive"],
  ["C#CCN(C)Cc1ccccc1", "inactive"],
  ["NS(=O)(=O)c1cc2c(cc1Cl)NC(CSCc1ccccc1)=NS2(=O)=O", "inactive"],
  ["COc1ccccc1O", "inactive"],
  ["CC(=O)NC(Cc1ccccc1)C(=O)O (configuration not stated)", "inactive"],
  ["Nc1nc2c(ncn2CCC(CO)CO)c(=O)[nH]1", "inactive"],
  ["CC1=C(CC(=O)O)c2cc(F)ccc2/C1=C\\c1ccc(S(C)=O)cc1 (configuration not stated)", "inactive"],
  ["CNCCC(Oc1ccc(C(F)(F)F)cc1)c1ccccc1 (configuration not stated)", "3.01 µM (active)"]
]}

# Potency of Oc1ccc(C(O)CNCCCCCCNCC(O)c2ccc(O)c(O)c2)cc1O (configuration not stated) = 10.7 µM (active)

# Potency of O=C(O)c1ccccc1O = inactive

# Potency of CC(C)(C)C(=O)C(Oc1ccc(Cl)cc1)n1ccnc1 (configuration not stated) = 13.5 µM (active)

# Potency of OCCN1CCN(CCCN2c3ccccc3Sc3ccc(Cl)cc32)CC1 = 5.73 µM (active)

###

procedure-text: S16 Schwann cell PMP22 intronic element firefly luciferase assay (AID 624032); also: nearly all actives have a fitted effect of over 30% in size
condition-summary: S16 rat Schwann cells, PMP22 element FLuc, 24 h; series mostly up to 57.5 µM
Records with an inconclusive call do not appear. Active and inactive are the calls of the source. Calls follow the shape of the dose curve; as a rule, active = well fitted inhibition curve with a large enough effect; inconclusive = small, poorly fitted or top-dose-only effect; inactive = no such curve, though single readings can be large or run the other way.
Parameter call: string, one of true (1) (active), false (0) (inactive)

Field: example entries. Status: answers known.
{"columns": ["compound", "category"],
 "data": [
  ["CC12CCC(CC1)C(C)(C)O2", "false (0)"],
  ["O=C(O)c1ccccn1", "false (0)"],
  ["CSc1ccc2c(c1)N(CCC1CCCCN1C)c1ccccc1S2 (stereo unspecified)", "true (1)"],
  ["COc1cc(C)c(Cc2cnc(N)nc2N)cc1OC", "false (0)"],
  ["NC1CCN(c2cccc(Cl)n2)CC1", "false (0)"],
  ["CC(C)c1c(C(=O)Nc2ccccc2)c(-c2ccccc2)c(-c2ccc(F)cc2)n1CC[C@@H](O)C[C@@H](O)CC(=O)O", "false (0)"],
  ["Cc1cc2c(cc1S(N)(=O)=O)S(=O)(=O)CCC2", "false (0)"],
  ["CCC(=O)Nc1ccc(O)cc1", "false (0)"]
]}

(Q) // param item: COc1ccc(S(=O)(=O)Nc2nnc(CC(C)C)s2)cc1 ; yields the recorded call
(A) false (0)

(Q) // param item: C=Cc1c(C)c2cc3[nH]c(cc4nc(cc5nc(cc1[nH]2)C(C)=C5CCC(=O)O)C(CCC(=O)O)=C4C)c(C)c3C=C ; yields the recorded call
(A) true (1)

(Q) // param item: O=C(CCCN1CCN(c2ccccn2)CC1)c1ccc(F)cc1 ; yields the recorded call
(A) false (0)

(Q) // param item: Nc1ccc(S(=O)(=O)Nc2nccs2)cc1 ; yields the recorded call
(A) false (0)

(Q) // param item: C[C@](N)(Cc1ccc(O)cc1)C(=O)O ; yields the recorded call
(A) false (0)

(Q) // param item: O=C(O)c1ccccc1O ; yields the recorded call
(A) false (0)

(Q) // param item: CC(C(O)c1ccc(O)cc1)N1CCC(Cc2ccccc2)CC1 (stereo unspecified) ; yields the recorded call
(A) true (1)

(Q) // param item: O=C(O)[C@@H]1CSCN1 ; yields the recorded call
(A) false (0)

(Q) // param item: Cn1c(=O)c2c(ncn2CC2OCCO2)n(C)c1=O ; yields the recorded call
(A) false (0)

(Q) // param item: O=C1O[C@H]([C@@H](O)CO)C(O)=C1O ; yields the recorded call
(A) false (0)

(Q) // param item: Cc1cccc(C)c1NC(=O)CN(CC(=O)O)CC(=O)O ; yields the recorded call
(A) false (0)

(Q) // param item: CC(=O)c1ccc2c(c1)N(CCCN(C)C)c1ccccc1S2 ; yields the recorded call
(A) false (0)

(Q) // param item: Oc1cccc(O)c1 ; yields the recorded call
(A) false (0)

(Q) // param item: O=C(O)CC(O)C(=O)O (stereo unspecified) ; yields the recorded call
(A) false (0)

###

Entries annotated with measured activity, negative = inhibition
procedure-text: Stat Signaling Pathway (AID 446);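 also: ME-180 cervical cancer cells given 40 pM IL-6 alongside compound; SIE-controlled beta-lactamase reporter measured as 460/530 nm FRET emission ratio; % is scaled to controls: 0 for no effect and ±100 for the full control effect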
condition-summary: ME-180 (cervical carcinoma) SIE beta-lactamase reporter, IL-6 stimulated, 5 h; at 38 µM (top of the series)
Inconclusive results are not listed. The source made the active and inactive calls. Calls come from the whole dose curve; as a rule, active = well fitted curve in either direction with a large enough effect (not every such curve was filed as active); inconclusive = small, poorly fitted or top-dose-only effect, or another doubt; inactive = flat fitted curve, though single readings scatter.

Known activity, negative = inhibition results, listed for orientation:
{"columns": ["structure", "endpoint", "value-observed"],
 "data": [
  ["OCCN1CCN(CCCN2c3ccccc3Sc3ccc(Cl)cc32)CC1", "activity, negative = inhibition", "-28.9% (inactive)"],
  ["CC(C)C(=O)c1c(C(C)C)nn2ccccc12", "activity, negative = inhibition", "2.52% (inactive)"],
  ["N=c1c[n+](N2CCOCC2)[n-]o1", "activity, negative = inhibition", "-10.2% (inactive)"],
  ["COc1ccc(Cl)cc1C(=O)NCCc1ccc(S(=O)(=O)NC(=O)NC2CCCCC2)cc1", "activity, negative = inhibition", "4.48% (inactive)"],
  ["CCN(CC)CCNC(=O)c1cc(Cl)c(N)cc1OC", "activity, negative = inhibition", "-26.6% (inactive)"],
  ["CN(C)CCC=C1c2ccccc2CCc2ccccc21", "activity, negative = inhibition", "28.3% (inactive)"]
]}

# activity, negative = inhibition of CN(C)CCCN1c2ccccc2Sc2ccc(Cl)cc21 = -20.2% (inactive)

# activity, negative = inhibition of Nc1cc(=O)[nH]c(N)n1 = 1.02% (inactive)

###

procedure-text: Cell Viability - LYMP2-005 (AID 967);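 also: cells exposed to compound for 24 h at 37 °C; plate controls were DMSO only for no effect and 92 µM tetraoctylammonium bromide control for full effect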
condition-summary: LYMP2-005 lymphoblastoid cell viability; series mostly up to 92.2 µM
Inconclusive results are not listed. Active and inactive are the calls of the source. Calls follow the shape of the dose curve; as a rule, active = well fitted cell-killing curve with a large enough effect; inconclusive = small, poorly fitted or top-dose-only effect, or effect the other way; inactive = no such curve, though single readings can be large or run the other way.
endpoint: outcome

Known outcome results, listed for orientation:
{"columns": ["structure", "value-observed"],
 "data": [
  ["[Cl][In]([Cl])[Cl]", "inactive"],
  ["CCCCOC(=O)c1ccc(O)cc1", "inactive"],
  ["CC12CCC(CC1)C(C)(C)O2", "inactive"],
  ["NCCNCCNCCNCCN", "inactive"],
  ["Cc1cc2nc3c(=O)[nH]c(=O)nc-3n(C[C@H](O)[C@H](O)[C@H](O)CO)c2cc1C", "inactive"],
  ["Nc1ccc(S(=O)(=O)Nc2nccs2)cc1", "inactive"]
]}

# outcome of NCCNCCNCCN = inactive
